Origin of values: the OligoGym collection

# measurement-target: NRN1; further: reference of the scale not given here
# test: pooled miR-30 sensor sort-seq; sequence = guide strand
# assay-setup: shRNA
measure-name: sensor-assay potency score (higher = more potent)

sequence-input: TTCTTTTCTCAGTTTATCCCAC
measurement-target: NRN1; further: reference of the scale not given here
test-result: -0.535

sequence-input: TCGTCTTGTCGTCCAGGCCCTG
measurement-target: NRN1; further: reference of the scale not given here
test-result: -1.79

sequence-input: TTGAAGACCGCATCGCACTTGC
measurement-target: NRN1; further: reference of the scale not given here
test-result: 0.325

sequence-input: TCAGTGAAATATATCTGCCGTT
measurement-target: NRN1; further: reference of the scale not given here
test-result: -1

sequence-input: TTGTCGTCCAGGCCCTGCGGGT
measurement-target: NRN1; further: reference of the scale not given here
test-result: -1.62

sequence-input: TTGATGTTCGTCTTGTCGTCCA
measurement-target: NRN1; further: reference of the scale not given here
test-result: 0.18
